# methodSummary: Irwin dose-range study/acute toxicity in the mouse
# Set-up: species or system Male CD-1 mice
# cond: in vivo, oral, 7 days observation, method of Horn
# Excerpt: Irwin Dose-Range Study/Acute Toxicity in the Mouse The animals were also observed daily for seven days post-dose and any mortalities noted. LD50 values were estimated using the method of Horn (Biometrics, 12, 311 (1956)).
reportedProperty: LD50 at 168 h (mg/kg)
One number for each entry, in mg/kg.

NC1C2C3CC4C5CC(C42)C1(c1ccccc1)C53 (stereo not drawn): 825

Entry NC1C2C3CC4C5CC(C1C53)C42 (stereo not drawn) — recorded LD50 at 168 h = 1000

###

# methodSummary: Irwin dose-range study/acute toxicity in the mouse
# Parameters: species or system Male CD-1 mice
# cond: in vivo, LD50 acute oral toxicity / ED50 reserpine catalepsy, read-out: Therapeutic index (LD50/ED50)
Can you tell me selectivity ratio for the items I'm about to list?
Give bare numbers.

NC1C2C3CC4C5CC(C42)C1(c1ccccc1)C53 (stereo not drawn): 25.6

--- query ---
Entry NC1C2C3CC4C5CC(C1C53)C42 (stereo not drawn) — recorded selectivity ratio = 7.2
